Test system: Staphylococcus aureus ATCC 6538
assayName: ≥ marks a high value that may be exact or a test limit, other limits are often not marked, values filed in µg/mL are converted to µM

| compound | MIC |
| --- | --- |
| CC[C@H](C)[C@H](NC(=O)[C@H](C)NC(=O)[C@H](CO)NC(=O)[C@@H](NC(=O)[C@H](C)NC(=O)[C@H](CC(N)=O)NC(=O)[C@@H](NC(=O)[C@H](C)NC(=O)[C@H](Cc1cnc[nH]1)NC(=O)[C@@H]1CCCN1C(=O)[C@@H](NC(=O)[C@H](CC(C)C)NC(=O)[C@H](CO)NC(=O)[C@H](CC(C)C)NC(=O)[C@@H](N)Cc1ccccc1)[C@@H](C)CC)[C@@H](C)CC)C(C)C)C(=O)N[C@@H](C)C(=O)N[C@@H](CCCCN)C(=O)N[C@@H](Cc1cnc[nH]1)C(=O)N[C@@H](Cc1ccccc1)C(N)=O [FLSLIPHAINAVSAIAKHF] | 6 µM |
